biological target: MST4 (Homo sapiens, UniProt Q9P289); conditions: binder
Sequence (Q9P289 whole entry): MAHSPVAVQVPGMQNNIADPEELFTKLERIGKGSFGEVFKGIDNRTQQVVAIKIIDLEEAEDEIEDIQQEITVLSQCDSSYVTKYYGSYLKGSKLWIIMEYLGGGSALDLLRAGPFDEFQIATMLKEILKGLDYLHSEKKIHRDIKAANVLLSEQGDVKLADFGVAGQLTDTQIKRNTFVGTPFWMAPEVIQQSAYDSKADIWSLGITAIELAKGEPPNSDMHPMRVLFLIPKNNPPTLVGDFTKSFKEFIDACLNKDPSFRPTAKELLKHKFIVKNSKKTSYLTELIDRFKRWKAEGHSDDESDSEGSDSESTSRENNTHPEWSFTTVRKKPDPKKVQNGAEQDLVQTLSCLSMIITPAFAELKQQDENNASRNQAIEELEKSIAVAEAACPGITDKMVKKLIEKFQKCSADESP
The recorded dTm MST4 of each item maps onto one of these classes: A (below 9 °C), B (9 °C to below 10 °C), C (10 °C or more)

>>> df
                                 smiles_repr  discrete_label
 0  Cc1cccc(-c2ccc(-c3cc4cnc(Nc5cc(C(F)(F)F)ccc5C)nc4n(CCCCN)c3=O)c(Cl)c2)n1               B
 1  Cc1cccc(-c2ccc(-c3cc4cnc(NCCCN5CCOCC5)nc4n(CCCCN)c3=O)c(Cl)c2)n1               C
 2  Cc1cccc(-c2ccc(-c3cc4cnc(Nc5ccc(O)cc5)nc4n(CCCCN)c3=O)c(Cl)c2)n1               C
 3  COc1ccc(O)c(Nc2ncc3cc(-c4ccc(-c5cccc(C)n5)cc4Cl)c(=O)n(CCCCN)c3n2)c1               A
 4  Cc1cccc(-c2ccc(-c3cc4cnc(Nc5ccc(CCCO)cc5)nc4n(CCCCN)c3=O)c(Cl)c2)n1               C
 5  Cc1cccc(-c2ccc(-c3cc4cnc(NCCCc5ccc(N)cc5)nc4n(CCCCN)c3=O)c(Cl)c2)n1               B
 6  Cc1cccc(-c2ccc(-c3cc4cnc(NCCCN5CCCC5=O)nc4n(CCCCN)c3=O)c(Cl)c2)n1               A
 7  Cc1cccc(-c2ccc(-c3cc4cnc(Nc5ccc(C)c(O)c5)nc4n(CCCCN)c3=O)c(Cl)c2)n1               C
 8  Cc1cccc(-c2ccc(-c3cc4cnc(NC(CO)CO)nc4n(CCCCN)c3=O)c(Cl)c2)n1               A
 9  COc1cc(N2CCN(C)CC2)ccc1Nc1ncc2cc(-c3ccc(-c4cccc(C)n4)cc3Cl)c(=O)n(CCCCN)c2n1               A
10  Cc1cccc(-c2ccc(-c3cc4cnc(Nc5ccc(F)c(CO)c5)nc4n(CCCCN)c3=O)c(Cl)c2)n1               C

###

Reported dTm MST4 values follow for various compounds
biological target: MST4 (Homo sapiens); details: binder
TEST READOUT: dTm MST4 (°C)

In [3]: df
Out[3]:
                                 smiles_repr  unit_of_measure   val
 0  CNc1ncc2cc(-c3ccc(-c4cccc(C)n4)cc3Cl)c(=O)n(CCO)c2n1               °C   5.8
 1  CNc1ncc2cc(-c3ccc(-c4cccc(C)n4)cc3Cl)c(=O)n(CCCCN)c2n1               °C  11.4
 2  CNc1ncc2cc(-c3ccc(-c4cccc(C)n4)cc3Cl)c(=O)n(CCCN)c2n1               °C   7.2
 3  CNc1ncc2cc(-c3ccc(-c4cccc(C)n4)cc3Cl)c(=O)n(CCCO)c2n1               °C   5.0
 4  CNc1ncc2cc(-c3ccc(-c4cccc(C)n4)cc3Cl)c(=O)n(CCC3CCNCC3)c2n1               °C   7.8
 5  CNc1ncc2cc(-c3ccc(-c4cccc(C)n4)cc3Cl)c(=O)n(CCN)c2n1               °C   3.3
 6  CNc1ncc2cc(-c3ccc(-c4cccc(C)n4)cc3Cl)c(=O)n(C)c2n1               °C   1.6
 7  CNc1ncc2cc(-c3ccc(-c4cccc(C)n4)cc3Cl)c(=O)n(CCCCCN)c2n1               °C   7.1
 8  CNc1ncc2cc(-c3ccc(-c4cccc(C)n4)cc3Cl)c(=O)n(CCCCCO)c2n1               °C   5.5
 9  CNc1ncc2cc(-c3ccc(-c4cccc(C)n4)cc3Cl)c(=O)n(CCOC)c2n1               °C   4.4
10  CNc1ncc2cc(-c3ccc(-c4cccc(C)n4)cc3Cl)c(=O)n(C[C@H]3CC[C@H](N)CC3)c2n1               °C   8.2
11  CNc1ncc2cc(-c3ccc(-c4cccc(C)n4)cc3Cl)c(=O)n(CCCOC)c2n1               °C   4.1
12  CNc1ncc2cc(-c3ccc(-c4cccc(C)n4)cc3Cl)c(=O)n(CCCCOC)c2n1               °C   3.6
13  CNc1ncc2cc(-c3ccc(-c4cccc(C)n4)cc3Cl)c(=O)n(CCCCO)c2n1               °C   5.0
